- assayed-system: TEAD2 (Homo sapiens, UniProt Q15562)
- Sequence (Q15562 whole entry, species assumed): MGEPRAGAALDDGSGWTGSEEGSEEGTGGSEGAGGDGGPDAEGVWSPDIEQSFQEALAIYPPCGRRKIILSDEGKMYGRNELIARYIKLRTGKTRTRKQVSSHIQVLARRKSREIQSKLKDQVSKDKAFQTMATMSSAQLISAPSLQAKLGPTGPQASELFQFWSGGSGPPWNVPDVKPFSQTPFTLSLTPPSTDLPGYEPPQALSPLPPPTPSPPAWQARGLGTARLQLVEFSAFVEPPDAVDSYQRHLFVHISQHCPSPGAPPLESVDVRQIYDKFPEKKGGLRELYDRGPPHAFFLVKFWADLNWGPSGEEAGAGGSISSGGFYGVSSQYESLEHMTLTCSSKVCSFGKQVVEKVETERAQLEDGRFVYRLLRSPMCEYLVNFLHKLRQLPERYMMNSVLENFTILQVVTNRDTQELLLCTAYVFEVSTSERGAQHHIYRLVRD
- assay-method-text: Thermal shift assay TEAD2
- Assay type: binding
parameter-measured: TEAD2 ΔTm (°C)

>>> value_measured("CNC(=O)[C@@H]1CC1c1cc(Oc2ccc(C(F)(F)F)cc2)cc2cn(C(F)F)nc12 (mixture of isomers)")
12.3

I: Cn1cc2cc(Oc3ccc(Cl)cc3)cc([C@@H]3C[C@H]3C(=O)N3C[C@@H]4C[C@H]3C[C@@H]4O)c2n1 (single isomer, unassigned)
II: Cn1ncc2c(C3C[C@H]3C(=O)O)cc(OCc3ccc(C(F)(F)F)cc3)cc21 (mixture of isomers)
III: CC(C)NC(=O)[C@@H]1C[C@H]1c1cc(-c2ccc(C(F)(F)F)cc2)cc2c1cnn2C (racemic)
## Task Sort the compounds on TEAD2 ΔTm; start with the lowest figure. Write the labels, ordered according to the request.
## Result III, II, I
